Entry source: patent US9630991B2

METHOD DESCRIPTION: Fibril dimensions measured from TEM images
Format: physicochemical
EXPERIMENTAL CONDITIONS: physiological conditions, TEM
Where a SMILES comes first, the peptide text is derived from it. [ ]: non-standard residue; d: D form. Orn = NCCC[C@H](N)C(=O)O
MEASURED PARAMETER: ww, width of the fibril at its widest point

{"columns": ["COMPOUND", "REPORTED VALUE"],
 "data": [
  ["CC(=O)N[C@H](C(=O)N[C@H](C(=O)N[C@@H](CCCNC(=N)N)C(=O)N[C@@H](Cc1ccccc1)C(=O)N[C@@H](CCC(=O)O)C(=O)N[C@@H](Cc1c[nH]c2ccccc12)C(=O)N[C@@H](CCC(=O)O)C(=O)N[C@@H](Cc1ccccc1)C(=O)N[C@@H](CCC(=O)O)C(=O)N[C@H](C(=O)N[C@H](C(N)=O)[C@@H](C)O)[C@@H](C)O)[C@@H](C)O)[C@@H](C)O [Peptide P11-17, CH3CO-T-T-R-F-E-W-E-F-E-T-T-NH2] (Ac-TTRFEWEFETT-NH2)", "10-16 nm"],
  ["CC(=O)N[C@@H](CCC(N)=O)C(=O)N[C@@H](CCC(N)=O)C(=O)N[C@@H](CCCNC(=N)N)C(=O)N[C@@H](Cc1ccccc1)C(=O)N[C@@H](CCCN)C(=O)N[C@@H](Cc1c[nH]c2ccccc12)C(=O)N[C@@H](CCCN)C(=O)N[C@@H](Cc1ccccc1)C(=O)N[C@@H](CCC(=O)O)C(=O)N[C@@H](CCC(N)=O)C(=O)N[C@@H](CCC(N)=O)C(N)=O [Peptide P11-8, CH3CO-Q-Q-R-F-O-W-O-F-E-Q-Q-NH2] (Ac-QQRF[Orn]W[Orn]FEQQ-NH2)", "13-19 nm"]
]}
